Origin of values: the supplement of paper PMC11417369

Property: gcPBM binding intensity (ln); scope: individual sequences
- Tested on: PfAP2-G AP2 domain (GST-tagged)
- protocol: gcPBM binding intensity (ln(normalized median fluorescence intensity)); higher = stronger DNA binding
In all, about 25,000 sequences were measured (“ln(normalized median fluorescence intensity)”: median about 10, highest 2% from about 12 on). The list comes from a sample in which the highest values are over-represented; it also holds close analogues and randomly drawn sequences.
Give a plain numeric answer without units written out.

Consider the following illustrative entries.
- ATACATAAATTTTGTACACACAAAAAAAAAAAAGCT [CACACA_site1351]: 11.2
- AAAAAAAAAAAAAAAAAAAAAAAAAAAAATAAAAAA [CACACA_negctrl_site59]: 11
- AATGCTATCTTCTTATTTTTCATACACAACATGAAC [CACACA_negctrl_site1809]: 10.2

Please give measured gcPBM binding intensity (ln) of the following entry: GAAAGAATAAAATAAACATGCAAATAAAACATAAAA [TGCATGCA_site471]
9.81

Please give measured gcPBM binding intensity (ln) of the following entry: TGGAAATTCTCAGGAGTGCATATTTGCAGTTTACGT [GTGCAC_site9768]
10.3

Please give measured gcPBM binding intensity (ln) of the following entry: GAAAATTTTTGGTGTACACAAAAAAATCCAAAAAAA [CACACA_site5042]
11.7

Please give measured gcPBM binding intensity (ln) of the following entry: ATATATATATATATATGTACTTATATATAATATAGA [XGTACX_site3488]
11.2

Please give measured gcPBM binding intensity (ln) of the following entry: TTCATTCAAATCCAAGCATGCTTTATTAAAAAATTA [TGCATGCA_site567]
9.84

Please give measured gcPBM binding intensity (ln) of the following entry: CTTATACATAAATTTTGTACACACAAAAAAAAAAAA [XGTACX_site2665]
11.2
